Kindly state EC50 for each of the entries shown.
measuredTarget: T1, human PDL1-Fc fusion protein (human)
T1 construct: also called human PDL1-Fc recombinant protein
T1 sequence (chain, as listed by the source limits assumed): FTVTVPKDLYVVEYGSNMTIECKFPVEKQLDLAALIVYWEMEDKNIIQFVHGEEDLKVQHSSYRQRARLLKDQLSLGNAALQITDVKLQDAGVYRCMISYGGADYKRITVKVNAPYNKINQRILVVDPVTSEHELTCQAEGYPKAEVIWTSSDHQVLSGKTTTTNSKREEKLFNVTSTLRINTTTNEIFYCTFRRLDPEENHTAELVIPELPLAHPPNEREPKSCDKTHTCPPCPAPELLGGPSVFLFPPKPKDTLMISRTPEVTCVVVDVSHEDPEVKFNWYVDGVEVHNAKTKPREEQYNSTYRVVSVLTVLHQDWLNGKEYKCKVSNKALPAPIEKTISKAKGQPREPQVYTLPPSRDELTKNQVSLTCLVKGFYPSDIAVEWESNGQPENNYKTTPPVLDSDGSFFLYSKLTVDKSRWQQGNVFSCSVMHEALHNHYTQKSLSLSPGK
protocolDetails: ELISA, human PDL1-Fc coated 200 ng/well, anti-His HRP
Answers are plain numbers, in µg/mL.

Previously resolved entries follow.
Which EC50 is listed for PDL1-1v7 (VHH, Humanized PDL1-1, His-tagged) VHH: EVQLLESGGGLVQPGGSLRLSCAASGFTVSNSAVSWARQAPGKGLEWVSLIDSNRNTVYAQSVRGRFTISRDNSKNTVYLQMNSLRPEDTAVYYCAKGIWGSTLWGQGTTVTVSS ?
0.028

What do you get for PDL1-1v1 (VHH, Humanized PDL1-1, His-tagged, from 293-F) VHH: EVQLLESGGGLVQPGGSLRLSCAASGFTVSNSAVSWARQAPGKGLEWVSLIDSNRNTVYAQSVRGRFTISRDNSKNTVYLQMNSLRAEDTAVYYCAKGIWGSTLWGQGTTVTVSS ?
0.0251

What do you get for PDL1-1v9 (VHH, Humanized PDL1-1, His-tagged) VHH: EVQLLESGGGLVQPGGSLRLSCAASGFTVSNSAVSWARQAPGKGLEWVSLIDSNRNTVYAQSVRGRFTISRDNSKNTVYLQMNSLRAEDTAVYYCAKGIWGSTLWGQGTQVTVSS ?
0.026

Could you now consider this next binder?
Which EC50 is listed for PDL1-1v4 (VHH, Humanized PDL1-1, His-tagged) VHH: EVQLQESGGGLVQPGGSLRLSCAASGFTVSNSAVSWARQAPGKGLEWVSLIDSNRNTVYAQSVRGRFTISRDNSKNTVYLQMNSLRAEDTAVYYCAKGIWGSTLWGQGTTVTVSS ?
4
